- protocol.details: Octanol-buffer partition coefficient, log D of the compound at pH 7.4 by shake flask method
- Assay type: physicochemical

{"compound.smiles": "COc1ccccc1CN(C(C)=O)c1cnc([18F])cc1Oc1ccccc1", "logD": 2.82}
